- run-description: Efflux ratio of permeability from basolateral to apical over apical to basolateral side of MDCK cells
- Type: ADME, cell-based, Canis lupus familiaris
- condition-context: dog
Quick reference: efflux ratio of the listed items.
Number, no unit, nothing else.

> print(dat)
                                   compound  numeric.readout
1  CC(C)[C@]1(C(=O)N2C[C@@H]3C[C@H]2CN3C(=O)CCC(F)(F)F)CC[C@@H](NC2CCOCC2F)C1 (some centres not stated)              0.6

Could you now consider this next compound?
Answer with reported efflux ratio of CC(CC(=O)N1C[C@@H]2C[C@H]1CN2C(=O)[C@@]1(C(C)C)CC[C@@H](NC2CCOCC2F)C1)C(F)(F)F (some centres not stated)
0.8
